Examples of variants with documented yeast fitness follow.
B1: tRNA (parent)
chain: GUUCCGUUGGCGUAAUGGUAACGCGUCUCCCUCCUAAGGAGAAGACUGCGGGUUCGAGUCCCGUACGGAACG

Variants of: B1
Test: yeast fitness relative to wild type (ratio to wild type); higher = fitter; tRNA-Arg(CCU), competitive growth, 37 C, YPD
This sample holds only a part of the variants without activity.
quantity: yeast fitness

mutant.label: U3G U13C A14U C61G C62U
quantity: yeast fitness
recorded.result: ≤ 0.5
--
mutant.label: A42G C46U A57C
quantity: yeast fitness
recorded.result: ≤ 0.5
--
mutant.label: U8A G39C A57G A65G
quantity: yeast fitness
recorded.result: ≤ 0.5
--
mutant.label: C61U G68U
quantity: yeast fitness
recorded.result: 0.639
--
mutant.label: C31A A36G A57C
quantity: yeast fitness
recorded.result: ≤ 0.5
--
mutant.label: C34G A43U A70C
quantity: yeast fitness
recorded.result: ≤ 0.5
--
mutant.label: C11A G25C C29U
quantity: yeast fitness
recorded.result: ≤ 0.5
--
mutant.label: C11U A15C
quantity: yeast fitness
recorded.result: 0.595
--
mutant.label: U2C U54A A70U
quantity: yeast fitness
recorded.result: 0.555
--
mutant.label: C27G A36U U53A
quantity: yeast fitness
recorded.result: ≤ 0.5
--
mutant.label: A14C U28C A40G C55A A57C C62U
quantity: yeast fitness
recorded.result: ≤ 0.5
--
mutant.label: C4G C34G U59A
quantity: yeast fitness
recorded.result: ≤ 0.5
--
mutant.label: G9C G12A U35G
quantity: yeast fitness
recorded.result: ≤ 0.5
--
mutant.label: U3C G17C C22A C24G U28C C33A
quantity: yeast fitness
recorded.result: ≤ 0.5
--
mutant.label: U2A U59A
quantity: yeast fitness
recorded.result: 0.917
--
mutant.label: C24U C29U C46U
quantity: yeast fitness
recorded.result: 0.554
--
mutant.label: C31G U32A A40C
quantity: yeast fitness
recorded.result: ≤ 0.5
--
mutant.label: C34A C55G U64C A65C
quantity: yeast fitness
recorded.result: ≤ 0.5
--
mutant.label: A14U C29A C49A A69U
quantity: yeast fitness
recorded.result: ≤ 0.5
--
mutant.label: C5G C24G C30G C31U U35A A36U G44A C60U A70C
quantity: yeast fitness
recorded.result: ≤ 0.5
--
mutant.label: C11A C34G G50A
quantity: yeast fitness
recorded.result: 0.681
--
mutant.label: G50C A69C
quantity: yeast fitness
recorded.result: 0.67
--
mutant.label: C34G A42U
quantity: yeast fitness
recorded.result: 0.621
--
mutant.label: C27G U28A A65U
quantity: yeast fitness
recorded.result: ≤ 0.5
--
mutant.label: C5U U28A G41A C62U
quantity: yeast fitness
recorded.result: ≤ 0.5
--
mutant.label: A15C A36U G39A
quantity: yeast fitness
recorded.result: ≤ 0.5

Source: the RNAGym collection of RNA variant scans (doi:10.1126/science.aae0568)
